tested on: NCI-H522 lung; assay: NCI tumour cell line growth inhibition, 48 h
Hi there, I'd appreciate the recorded TGI for every entry that follows.

input: Supply measured TGI of "CC(=O)NC(c1nc2cc(C)c(C)cc2[nH]1)c1nc2cc(C)c(C)cc2[nH]1" in your reply.
output: 18 µM

input: Tell me its TGI given CC1(C)C(O)C[C@@H](O)[C@@]2(C)C1CC[C@]1(C)C2C[C@@H](O)[C@@H]2C([C@@]3(C)CC[C@@H](C(C)(C)O)O3)CCC21C (some centres not stated) as the entry.
output: 27.8 µM

input: State its TGI: "CCOC(=O)c1cnc2n(c1=N)[C@H]1CCCC[C@@H]1N2"
output: > 100 µM

input: Give the value of TGI reported for the following: "C=CCSC1=N/C(=C\c2cccs2)C(=O)N1CC=C"
output: > 100 µM

input: For the molecule "Nc1nc(OCc2cc(Br)cs2)c2[nH]cnc2n1" , give its measured TGI value.
output: > 100 µM

Okay, here is my list. What is TGI for each of these?
1. COc1ccc2cc(C(=O)O)ccc2c1OC
2. COC(=O)/C=C1/CCC(C)(C(=O)NS(=O)(=O)c2ccc(C)cc2)C1(C)C (configuration not stated)
3. CCOC(=O)n1cc(C2=C(c3cn(C)c4ccccc34)COC2=O)c2ccccc21

output:
> 100 µM
> 100 µM
1.02 µM

----------
system: HCC-2998 colon; experiment: NCI tumour cell line growth inhibition, 48 h; in the data active = GI50 below about 0.43 µM; inactive = the rest
The reply should name one outcome from 1 (active), 0 (inactive)

input: What did the test return for "Cc1ccc(-c2cc3c(SCC(=O)Nc4cc(C(F)(F)F)ccc4Cl)nccn3n2)cc1" ?
output: 0

input: Query: recorded result category for "CCOC(=O)n1cc(C2=C(c3cn(C)c4ccccc34)COC2=O)c2ccccc21" in this test
output: 1

input: Can you look up the reported call for "O=C1c2ccccc2S(=O)(=O)N1CSC(=S)N1CCCCC1" for me?
output: 0

input: Assay result, entry "CC1(C)CCC2=C(O1)c1ccccc1C(=O)C2=O" — outcome?
output: 0

input: Please let me know the test result on file for "Cc1cc(O)ccc1C1=NN(c2ccc(S(C)(=O)=O)cc2)C(=O)CC1" .
output: 0

input: Which outcome was assigned to "COc1cc2nc(SCC(=O)Nc3cc(OC)c(OC)c(OC)c3)n(Cc3ccccc3)c(=O)c2cc1OC" in this test?
output: 0

input: Tell me the assay call for "Cc1ccc2ncnc(N(CC(C)C)CC(C)C)c2c1" please.
output: 0

input: Look up the recorded call for "C/C(=C\CCc1ccoc1)CC/C=C(\C)CCCN1CCOCC1" in this test.
output: 0

input: For "CN(Cc1cc(Br)cc(Br)c1O)Cc1cc(Br)cc(Br)c1O" , what call appears in the results of this test?
output: 0

input: Hi, sorry to bother you, what did the test record for "CC(=O)c1cc(C(=O)c2ccc3c(c2)Sc2ccccc2N3)c2c(C)cc(C)cn12" ?
output: 0

New cases:
input: Would you mind telling me which call this test gave COc1ccc(C(SCC(N)C(=O)O)(c2ccccc2)c2ccccc2)cc1 (stereo unspecified) ?
output: 1

----------
system: RPMI-8226 leukemia; assay: NCI tumour cell line growth inhibition, 48 h
Readout Kind: TGI (µM)
Give bare numbers, in µM.

input: Give the measured TGI for "O=C(N=Nc1cccc(Cl)c1)NNc1cccc(Cl)c1"
output: 56.8

New cases:
input: Query TGI for CN(C)P(=O)(Oc1ccc(CC(NC(=O)OCc2ccccc2)C(=O)OCc2ccccc2)cc1)N(C)C (stereo not drawn)
output: 15.2

----------
system: SNB-19 CNS; experiment: NCI tumour cell line growth inhibition, 48 h
Give TGI for every item shown.

Consider the worked cases shown below.
input: Output measured TGI for this item: "C[C@]12CC[C@H](O)C[C@H]1CC[C@@H]1[C@@H]2CC[C@]2(C)[C@@H](C3=CC(=O)OC3)[C@@H](O)C[C@]12O"
output: 15.5 µM

input: Input COC(=O)C(Cc1cc(OC)c(OC)c(OC)c1)c1ccc(OC)cc1 (configuration not stated) , output reported TGI.
output: > 100 µM

input: Read off the recorded TGI for CC(NC(=O)C(N)CC(=O)O)NC(=O)C1CCC1 (configuration not stated)
output: > 100 µM

input: Let me know recorded TGI for "NC(=O)c1ccc(NN=O)nc1" , thanks.
output: > 100 µM

input: Please give measured TGI of the following entry: "Cc1ccc(S(=O)(=O)N2CCSCCN(S(=O)(=O)c3ccc(C)cc3)CCN(S(=O)(=O)c3ccc(C)cc3)CC2)cc1"
output: > 100 µM

input: Retrieve TGI measured for "CCOC(=O)n1cc(C2=C(c3cn(C)c4ccccc34)COC2=O)c2ccccc21" and print it.
output: > 63.2 µM

Lab note: next compound to report on.
input: Return the recorded TGI value; entry: "O=C(O)c1ccc(NC(NC(=O)C(C(F)(F)F)C(F)(F)F)(C(F)(F)F)C(F)(F)F)cc1"
output: > 100 µM

----------
test system: CCRF-CEM leukemia; assay: NCI tumour cell line growth inhibition, 48 h
Readout Kind: TGI

input: Recall and state the measured TGI for O=C1CCC2CC(C(=O)c3ccccc3)CCC2CN1 (stereo unspecified) (tested in a mixture with another compound) .
output: > 100 µM

input: Hello, please tell me recorded TGI for this one: CC1SC2=NC3=C(c4ccccc4C3=O)C(c3ccc(Cl)cc3)N2C1=O (stereo unspecified)
output: > 100 µM

input: Report TGI for "Cc1ccc(Nc2c(C#N)[n+]([O-])c3cc(Cl)ccc3[n+]2[O-])cc1"
output: > 100 µM

input: Answer with the recorded TGI for the molecule listed here: "Clc1ccc2c(c1)N(c1ncnc3ccc(-c4cnc5[nH]ccc5c4)cc13)CC2"
output: > 100 µM

input: Could you please provide reported TGI for "COc1ccc2[nH]cc([C@@H]3C4CCC(C4)[C@H]3NCc3cccc(CN[C@H]4C5CCC(C5)[C@@H]4c4c[nH]c5ccc(OC)cc45)c3)c2c1" ? Thanks!
output: 1.08 µM

# return TGI for each item in the list
1. CN(C)CCN=C1Nc2ccccc2C(=S)N2CSCC12 (stereo unspecified)
2. Cc1ccc(C(SCC(N)C(=O)O)(c2ccc(C)cc2)c2ccc(C)cc2)cc1 (stereo unspecified)
3. CC1=CC[C@@]2(CO)[C@@H]([C@@H]1C)[C@H]1CC[C@@H]3[C@@]4(C)CC[C@H](O)C(C)(C)[C@@H]4CC[C@@]3(C)[C@]1(C)C[C@@H]2O
4. CC(=O)Nc1ccc(-c2nc3ccccc3s2)cc1I
5. CC(C)NC(=O)OCc1c(COC(=O)NC(C)C)c(-c2cc[n+](COC(=O)C(C)(C)C)cc2)n2c1CCC2
6. Cc1oc2c(Cl)cc(O)c(Cl)c2c2cccc1-2
7. COc1ccc(OCc2ccc3nc(-c4ccccc4)c(Cl)nc3c2)cc1
8. CC1Oc2c(c(=O)oc3ccccc23)[C@@]1(C)CC1C[C@H](C)C(=O)O1 (stereo partly specified)

output:
1. > 100 µM
2. 55.4 µM
3. > 100 µM
4. > 100 µM
5. > 100 µM
6. 95.3 µM
7. 45.4 µM
8. 32.9 µM

// each molecule listed below needs its TGI
1. CC(=O)NC(c1nc2cc(C)c(C)cc2[nH]1)c1nc2cc(C)c(C)cc2[nH]1
2. COc1ccc(C(CC(=O)C(C)(C)CN2CCCCC2)SCCS(=O)(=O)O)cc1 (stereo unspecified)
3. Cc1nc2c(=O)n(-c3ccccc3)c3ccccc3c2o1
4. COc1cc(OC)c2nc(C)c3c(c2c1)NCC3
5. CCCCCCCCN(CCCCCCCC)CCCCCCNc1cc(OC)cc2cccnc12
6. CCOC(=O)n1cc(C2=C(c3cn(C)c4ccccc34)COC2=O)c2ccccc21

output:
37 µM
55.1 µM
> 100 µM
31.3 µM
> 100 µM
> 100 µM

Please supply TGI for each of the following items, keeping them in order.
1. CCc1n[nH]c(=O)n1/N=C/c1ccc(C)cc1
2. COc1c(C(=O)c2ccc([N+](=O)[O-])cc2)cc(C(C)(C)C)cc1C(C)(C)C
3. COC(=O)C(=O)C(C(=O)C(=O)Nc1nc2ccc(C)cc2s1)c1nc2ccc([N+](=O)[O-])cc2[nH]c1=O (stereo unspecified)
4. CCN1C(=O)N(CC)C2Nn3c(s/c(=C\c4ccccc4Br)c3=O)=NC21 (stereo unspecified)
5. O=[N+]([O-])c1ccccc1N/N=C\c1c[nH]c2ccccc12
6. CC(C)(C)C(=O)OCOP(=O)(OCOC(=O)C(C)(C)C)C1CC(O)N(O)C1=O (stereo unspecified)
7. CCC[C@H](NS(=O)c1ccc(C)cc1)C(C(=O)OCC)=C(c1ccccc1)c1ccccc1 (stereo partly specified)
8. N/N=C(\C(=O)Nc1ccc(Cl)cc1Cl)C(c1cnc2ccccc2n1)[N+](=O)[O-] (stereo unspecified)

output:
1: > 100 µM; 2: 97.5 µM; 3: > 100 µM; 4: > 100 µM; 5: > 100 µM; 6: 14.3 µM; 7: > 100 µM; 8: > 100 µM
